molecular target: Fuc(a1-2)[Gal(a1-3)]Gal(b1-3)GalNAc(b1-3)Gal(a1-4)Gal(b1-4)Glc; assay: glycan array binding signal (z-score within array); higher = stronger binding; settings: glycan notation: IUPAC condensed, linker removed
About 410 targets per protein were measured; listed, in parts, are those with the strongest signals and a random draw of the rest.
This listing pairs binders with measured glycan array binding signal (z-score).
Number, no unit, nothing else.

Consider Cohesin-hMARCO (Homo sapiens) (protein) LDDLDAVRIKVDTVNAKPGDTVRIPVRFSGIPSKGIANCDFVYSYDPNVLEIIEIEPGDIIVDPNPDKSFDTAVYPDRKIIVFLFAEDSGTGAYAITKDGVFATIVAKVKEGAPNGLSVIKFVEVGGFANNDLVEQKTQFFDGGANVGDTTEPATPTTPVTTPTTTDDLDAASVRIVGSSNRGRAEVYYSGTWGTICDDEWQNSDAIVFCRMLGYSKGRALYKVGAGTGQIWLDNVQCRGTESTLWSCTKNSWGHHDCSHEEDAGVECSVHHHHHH . Its measured glycan array binding signal (z-score) is -0.528

New cases:
Sample WGA (Triticum vulgare) (protein) QRCGEQGSNMECPNNLCCSQYGYCGMGGDYCGKGCQNGACWTSKRCGSQAGGATCPNNHCCSQYGHCGFGAEYCGAGCQGGPCRADIKCGSQSGGKLCPNNLCCSQWGFCGLGSEFCGGGCQSGACSTDKPCGKDAGGRVCTNNYCCSKWGSCGIGPGYCGAGCQSGGCDAVFAGAITANSTLLAE ; glycan array binding signal (z-score) observed: -0.364

For record Clec49 (Caenorhabditis elegans) (protein) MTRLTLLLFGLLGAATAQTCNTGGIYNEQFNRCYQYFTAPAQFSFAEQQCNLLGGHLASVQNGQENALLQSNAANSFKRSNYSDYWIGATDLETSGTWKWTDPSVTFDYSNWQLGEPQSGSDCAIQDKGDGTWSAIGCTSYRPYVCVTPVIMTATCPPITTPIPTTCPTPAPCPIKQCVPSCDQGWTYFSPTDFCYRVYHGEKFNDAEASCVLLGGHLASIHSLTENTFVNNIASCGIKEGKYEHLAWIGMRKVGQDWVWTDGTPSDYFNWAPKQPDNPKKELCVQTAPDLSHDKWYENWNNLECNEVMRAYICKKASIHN the listed glycan array binding signal (z-score) is 0.061

Data point: GNL (Galanthus nivalis) (protein) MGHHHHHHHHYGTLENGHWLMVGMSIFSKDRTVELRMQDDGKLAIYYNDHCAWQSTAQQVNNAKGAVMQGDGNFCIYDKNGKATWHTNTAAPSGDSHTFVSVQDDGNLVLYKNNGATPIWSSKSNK ; glycan array binding signal (z-score) = -0.172

Lab book: glycan array binding signal (z-score) of OrysaEULS2 (Oryza sativa) (protein) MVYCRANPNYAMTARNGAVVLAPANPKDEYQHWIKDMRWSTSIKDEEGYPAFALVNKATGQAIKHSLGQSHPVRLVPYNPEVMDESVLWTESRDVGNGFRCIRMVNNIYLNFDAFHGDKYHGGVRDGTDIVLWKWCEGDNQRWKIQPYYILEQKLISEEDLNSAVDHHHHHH noted as -0.248
